Experimental target: NrtA (FLIP-NT; CFP_NrtA_YFP) (Synechocystis sp. PCC 6803)
Construct: FRET sensor: His6-CFP-NrtA-YFP; NrtA without signal peptide (first 36 residues), stop and penultimate codon removed (1227 bp, 409 residues); E. coli BL21-CodonPlus(DE3), Ni-NTA
Procedure summary: FRET ratio (YFP/CFP, […] nm) titration of purified sensor
Assay type: binding
Recorded endpoint: Kd (µM)
Give the value, in units of µM, as a plain number.

(Q) Endpoint output: Kd of O=[N+]([O-])O [nitrate] . Value?
(A) 5

====

Experimental target: NrtA (FLIP-NT; CFP_NrtA_YFP) (Synechocystis sp. PCC 6803, UniProt P73452, W102A)
Construct: FRET sensor: His6-CFP-NrtA-YFP; NrtA without signal peptide (first 36 residues), stop and penultimate codon removed (1227 bp, 409 residues); E. coli BL21-CodonPlus(DE3), Ni-NTA
Sequence (P73452 37-445 W102A): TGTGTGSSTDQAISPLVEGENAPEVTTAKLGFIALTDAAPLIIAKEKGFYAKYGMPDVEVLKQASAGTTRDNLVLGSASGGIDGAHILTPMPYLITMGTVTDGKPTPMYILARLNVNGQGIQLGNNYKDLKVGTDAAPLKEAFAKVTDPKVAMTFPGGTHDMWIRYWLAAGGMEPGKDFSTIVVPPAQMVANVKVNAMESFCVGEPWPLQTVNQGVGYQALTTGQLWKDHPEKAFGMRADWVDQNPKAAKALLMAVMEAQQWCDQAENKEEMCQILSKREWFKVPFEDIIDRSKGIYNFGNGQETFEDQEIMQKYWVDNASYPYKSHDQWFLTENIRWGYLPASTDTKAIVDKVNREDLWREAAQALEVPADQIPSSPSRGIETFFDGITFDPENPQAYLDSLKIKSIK
Procedure summary: FRET ratio (YFP/CFP, […] nm) titration of purified sensor
Recorded endpoint: pKd
pKd field: float, defined as -log10 of concentration (mol/L).

(Q) Lookup: pKd / NrtA (FLIP-NT; CFP_NrtA_YFP) (Synechocystis sp. PCC 6803, UniProt P73452, W102A) / O=[N+]([O-])O [nitrate]
(A) 4.25
